Tested on: Plasmodium falciparum Sir2 (PF13_0152, Sir2A)
Assay: Plasmodium falciparum Sir2A binding compounds – biochemical, small-molecule microarray, 635 nm fluorescence, primary screen (AID 1098);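 also: score merges spot fluorescence intensity with its signal-to-noise ratio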
Conditions: fluorescence 635 nm, higher = more signal

molecule: C=C(CCCC)/C(=C/C[C@H](OC(=O)c1ccncc1)c1ccc(OCCO)cc1)c1cnc2ccccc2c1
composite z-score: 1.47
--
molecule: C=C(CCCC)C(=O)CC[C@@H](OC(=O)c1ccccc1-c1ccccc1C(=O)O)c1ccccc1OCCO
composite z-score: 0.776
--
molecule: NC(=O)N1C(=O)C2C(C1=O)C1C=C(CCCO)C2C(c2ccc(CN3CCCC3)cc2)N1Cc1sc2ccccc2c1Cl (stereo unspecified)
composite z-score: 0.0883
--
molecule: O=C1c2ccccc2[C@@]2(Cc3ccccc3N(Cc3ccccc3)C2=O)[C@H](c2ccc(CO)cc2)N1Cc1ccccc1Cl
composite z-score: -0.493
--
molecule: COc1ccc([Si](C)(C)[C@@H]2[C@@H](CC(=O)N3Cc4ccccc4C[C@H]3CO)O[C@]3(C(=O)N(Cc4cccc(N5CCOC5=O)c4)c4ccccc43)[C@H]2C)cc1
composite z-score: 1.21
--
molecule: CC=CC(O)C1C=CC2C(=O)NC(=O)C2N1Nc1ccc(Cl)cc1Cl (stereo unspecified)
composite z-score: 0.547
--
molecule: CC(C)(C)N1CC=CC23O[C@@H]4C=CCCOC(=O)C4[C@H]2C(=O)N(CCCCCCO)[C@@H]3C1=O (stereo partly specified)
composite z-score: 1.34
--
molecule: C#CCN1[C@@H](Cc2ccccc2)C(=O)O[C@H](Cc2ccccc2)[C@@H]1/C=C/C1CC1
composite z-score: 0.345
--
molecule: C=C(CCCC)/C(=C/C[C@@H](OC(C)=O)c1ccc(CO)o1)c1cnc2ccccc2c1
composite z-score: 1.08
--
molecule: CC(C)N1C(=O)c2ccccc2[C@@H](C(=O)NCC(F)(F)F)[C@@H]1c1ccc(CO)cc1
composite z-score: 0.861
--
molecule: CCOC(=O)C[C@H]1[C@H](OC(=O)c2ccccc2-c2ccccc2)[C@@H](NC(=O)c2ccc3ccccc3c2)c2cc(OCCCO)ccc2N1C(=O)Cc1ccc(OC)cc1
composite z-score: -0.332
--
molecule: O=C1NC(=O)C2C1C=CC(C(O)c1ccc([N+](=O)[O-])cc1)N2Nc1ccccn1 (stereo unspecified)
composite z-score: -0.0076
--
molecule: CCOC(=O)C1=CC[C@@H](c2ccccc2)N(S(=O)(=O)c2ccc(C)cc2)[C@H]1c1ccccc1I
composite z-score: 0.88
--
molecule: CCOC(=O)c1cn(C[C@H](Cc2ccccc2)NC(=O)N[C@H](CO)CCc2oc(C(C)=O)c(C(=O)OC)c2C(=O)OC)nn1
composite z-score: 0.559
--
molecule: Cc1ccc(C(C)CC(O)C2C=CC3C(=O)N(C)C(=O)C3N2Nc2ccccc2)o1 (stereo unspecified)
composite z-score: 0.84
--
molecule: COc1ccc(C(O)C2C=CC3C(=O)N(c4ccccc4)C(=O)C3N2Nc2ccc(C#N)cc2)cc1OCc1ccccc1 (stereo unspecified)
composite z-score: 1.09

----------
Assay: growth modulation of vineyard yeast isolate – strain RM11-1a, OD600, basal, 24 h, primary screen (AID 1177);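 also: cultures grown under basal conditions with no added stressor; test concentration not given here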
Details: S. cerevisiae RM11-1a growth, OD600, 24 h; higher = more signal, called active from +8 up or from −8 down
So basically: z-score at 0.4 or higher? That is Met. Lower than 0.4? That is Not met.

molecule: CC(C)C(=C=CC[C@H](O)c1ccccc1OCCO)C[C@H](O)c1cc(Cl)cc(Cl)c1O
label: Not met

molecule: O=C(NCC(O)CO)[C@@]1(CCS(=O)(=O)c2ccccc2)N=C(c2ccc(OCCCO)cc2)O[C@H]1c1ccccc1 (stereo partly drawn)
label: Not met

molecule: CCCCCC1=C2CNC(Cc3ccccc3)(C(=O)OC)C=C2C(C)C1=O (stereo not drawn)
label: Met

molecule: CN(C)CCCNC(=O)[C@@H]1c2ccccc2C(=O)N(Cc2ccccc2C(F)(F)F)[C@H]1c1ccc(CO)cc1
label: Not met

molecule: [N-]=[N+]=NCc1ccccc1[C@@H]1OC(c2ccc(OCCCO)cc2)=N[C@]1(Cc1ccccc1N=[N+]=[N-])C(=O)NCC(O)CO (stereo partly drawn)
label: Met

molecule: CC(C)(C)N1CC=CC23O[C@@H]4/C=C\CCCOC(=O)C4[C@H]2C(=O)N(CCCCCO)[C@@H]3C1=O (stereo partly drawn)
label: Not met

molecule: CC(C)=CCCC(C)=CC(O)C1C=CC2C(=O)NC(=O)C2N1Nc1ccc(Cl)cc1Cl (stereo not drawn)
label: Met

molecule: CC(C)NC(=O)[C@@H]1c2ccccc2C(=O)N(Cc2ccc(OC(F)(F)F)cc2)[C@H]1c1ccc(CO)cc1
label: Met

----------
Parameter z-score: see the listing below.
Test: growth of efflux-deficient E. coli DRC39 – strain DRC39, OD650, 24 h, E. coli filamentation inducers, primary screen (AID 1178);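 also: growth measured as culture turbidity by optical density at 650 nm; test concentration not given here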
Settings: E. coli DRC39 acrAB, higher = more signal, called active from +8 up or from −8 down
The source made the active and inactive calls.
metric: z-score

compound: COC(=O)[C@H](Cc1ccccc1)N1CC2=CCCC=C[C@@H]2[C@H]1[C@H](O)Cc1ccccc1
metric: z-score
result_value: -0.337 (inactive)
//
compound: Cc1ccc(S[C@]2(C(=O)NC(C)C)CC(=O)N(C3CCCCC3)[C@@H]2c2ccc(CO)cc2I)cc1
metric: z-score
result_value: 0.384 (inactive)
//
compound: COC(=O)[C@@]1(Cc2ccc(F)cc2)[C@H]2c3cc(C(=O)N(C)C)n(CCc4ccc(O)c(O)c4)c3C[C@H]2CN1C(=O)c1ccccc1
metric: z-score
result_value: -0.0718 (inactive)
//
compound: COc1cc(CO)cc(I)c1O[C@H]1C=C(C(=O)NCCO)C[C@@H]2O[C@H]12
metric: z-score
result_value: -0.364 (inactive)
//
compound: COC(=O)[C@@]1(Cc2ccc(OC)cc2)[C@H]2c3cc(C(=O)N4CCCC4)n(CCn4cc([N+](=O)[O-])nc4C)c3C[C@H]2CN1C(=O)c1ccccc1
metric: z-score
result_value: -0.784 (inactive)
//
compound: COc1ccc(CCNC(=O)[C@@H]2c3ccccc3C(=O)N(Cc3ccccc3OC)[C@H]2c2ccc(CO)cc2)cc1
metric: z-score
result_value: 0.483 (inactive)
//
compound: CCOC(=O)C[C@H]1[C@H](OC(=O)c2ccccc2-c2ccccc2)[C@@H](NC(=O)c2ccc3ccccc3c2)c2cc(OCCCO)ccc2N1C(=O)Cc1ccc(OC)cc1
metric: z-score
result_value: -0.516 (inactive)
//
compound: CN(C)CCCC[C@@H]1NC(=O)[C@H]2C[C@@H](C(=O)O)[C@@H](c3ccc(O)cc3)N2C1=O
metric: z-score
result_value: 0.679 (inactive)
//
compound: CCCC=C(CCC)[C@@H](NC(=O)OCC(C)C)c1ccc(C(=O)OC)cc1
metric: z-score
result_value: 0.386 (inactive)
//
compound: COc1ccc(C(O)C2C=CC3C(=O)N(C)C(=O)C3N2N(c2ccccc2)c2ccccc2)cc1 (stereo not given)
metric: z-score
result_value: -0.41 (inactive)
//
compound: O=C(N1CCOCC1)[C@@]1(Cc2ccccc2)COC(c2ccc(OCCCO)cc2)=N1
metric: z-score
result_value: 1.26 (inactive)
//
compound: COC(=O)C(CC#Cc1ccc2c(c1)[C@]1(C(=O)N2)[C@H](c2ccccc2OCCO)N2[C@H](c3ccccc3)[C@H](c3ccccc3)OC(=O)[C@H]2[C@@H]1C(=O)N1CCc2cc(OC)c(OC)cc2C1)C(=O)OC
metric: z-score
result_value: 0.021 (inactive)
//
compound: CC(C)N1C(=O)c2ccccc2[C@](C)(C(=O)NCC(F)(F)F)[C@@H]1c1ccc(CO)cc1
metric: z-score
result_value: 0.558 (inactive)
//
compound: CC1CC/C=C\[C@H]2OC34C=CCN(C(C)(C)C)C(=O)[C@H]3N(CCCO)C(=O)[C@@H]4C2C(=O)O1 (stereo not given in full)
metric: z-score
result_value: -0.282 (inactive)
//
compound: CCOc1cc(C(O)C2C=CC3C(=O)N(c4ccccc4)C(=O)C3N2Nc2ccccc2F)ccc1O (stereo not given)
metric: z-score
result_value: -0.223 (inactive)

----------
Molecular target: Carbonic anhydrase 2 (Homo sapiens) (UniProt P00918)
Test: compounds binding carbonic anhydrase 2 – biochemical, small-molecule microarray, Alexa647-labelled CAII, profiling panel (AID 1122)
Conditions: CAII-A647 binding fluorescence, higher = more signal
So basically: composite z-score at 0.6 or higher? That is fulfilled. Lower than 0.6? That is not fulfilled.

molecule: O=C1N(Cc2ccccc2)c2ccccc2C[C@@]12COC(c1ccc(OCCCO)cc1)=N2
label: not fulfilled

molecule: Cc1ccc(S[C@]2(C(=O)NC(C)C)CC(=O)N(C3CCCCC3)[C@@H]2c2ccc(CO)cc2I)cc1
label: fulfilled

molecule: CC1CC/C=C\[C@H]2OC34C=CCN(c5ccc(Cl)cc5)C(=O)[C@H]3N(CCCCCCO)C(=O)[C@]4(C)C2C(=O)O1 (stereo not given in full)
label: not fulfilled

molecule: CO[C@H]1O[C@H](CO)[C@@H](OC(=O)Nc2ccc3c(c2)OCO3)[C@H](OC(=O)Nc2ccccc2-c2ccccc2)[C@H]1OC(=O)Nc1ccccc1-c1ccccc1
label: fulfilled

molecule: COC(=O)[C@@]1(Cc2ccccc2)[C@H]2c3cc(C(=O)N(C)C)n(Cc4ccc(S(C)(=O)=O)cc4)c3C[C@H]2CN1C(=O)c1ccccc1
label: fulfilled
